Would you kindly list IC50 (radioligand displacement) for each of these molecules?
target entity: Human CB2 (Homo sapiens)
Construct: expressed in transfected cells; membrane preparation
experiment notes: Human CB2 Radioligand Binding Assay
condition details: membranes from stably transfected CHO CB2 cells; competition with [3H] CP-55,940; read-out: CB2 Ligand Binding Asssay

Using the record for CC(C)(C)c1ccc(C2=C(C(=O)Nc3ccc(F)cc3F)CCCn3cccc32)cc1 [Example 62] , report its IC50 (radioligand displacement).
< 1000 nM

Using the record for CC(C)(C)c1ccc(C2=C(C(=O)Nc3ccc(Cl)cc3)CCn3cccc32)cc1 [Example 60] , report its IC50 (radioligand displacement).
< 1000 nM

Using the record for CC(C)(C)c1ccc(C2c3cncn3CCCN2C(=O)Nc2ccc(Cl)cc2Cl)cc1 (centres unmarked) [Example 31] , report its IC50 (radioligand displacement).
< 1000 nM

Using the record for CC(C)(C)c1ccc(C2=C(NC(=O)Nc3ccc(Cl)cc3Cl)CCCn3cccc32)cc1 [Example 86] , report its IC50 (radioligand displacement).
< 1000 nM

Using the record for CC(C)(C)c1ccc(C2c3cccnc3OCCN2C(=O)Nc2ccc(F)c(F)c2)cc1 (centres unmarked) [Example 139] , report its IC50 (radioligand displacement).
> 1000 nM

Using the record for CC(C)(C)c1ccc(C2c3cccn3CCCC2C(=O)Nc2ccc(OC(F)(F)F)cc2)cc1 (centres unmarked) [Example 94] , report its IC50 (radioligand displacement).
< 1000 nM

Using the record for CC(C)(C)c1ccc(C2[C@@H]3CCCN3CCCN2C(=O)Nc2ccc(F)c(F)c2)cc1 (some centres unmarked) [Example 130] , report its IC50 (radioligand displacement).
< 1000 nM

Using the record for CC(C)(C)C1CCC(C2NCCCn3cccc32)CC1 (centres unmarked) [Example 32] , report its IC50 (radioligand displacement).
> 1000 nM

Using the record for O=C(Nc1ccc(F)cc1F)N1CCn2cccc2C1c1ccccc1 (centres unmarked) [Example 5] , report its IC50 (radioligand displacement).
> 1000 nM

Using the record for O=C(Nc1ccc(F)cc1F)[C@H]1CCCn2cccc2[C@@H]1c1ccccc1 (relative stereo) [Example 105] , report its IC50 (radioligand displacement).
> 1000 nM

Using the record for CC(C)(C)c1ccc(C2=C(C(=O)Nc3ccc(Cl)cc3)CCCn3cccc32)cc1 [Example 66] , report its IC50 (radioligand displacement).
< 1000 nM

Using the record for CC(C)(C)c1cccc(C2c3cccn3CCCN2C(=O)Nc2ccc(F)cc2F)c1 (centres unmarked) [Example 18] , report its IC50 (radioligand displacement).
< 1000 nM

Using the record for CC(C)(C)c1ccc(C2c3cccn3CCCN2c2nc3ccccc3o2)cc1 (centres unmarked) [Example 53] , report its IC50 (radioligand displacement).
> 1000 nM

Using the record for CC(=O)N1CCCn2cccc2C1c1ccc(C(C)(C)C)cc1 (centres unmarked) [Example 46] , report its IC50 (radioligand displacement).
> 1000 nM

Using the record for CC(C)(C)c1ccc(C2c3cccn3CCCC2NC(=O)Nc2ccc(F)cc2F)cc1 (mixture of isomers) [Example 116] , report its IC50 (radioligand displacement).
< 1000 nM

Using the record for CC(C)(C)c1ccc(C2=C(C(=O)Nc3ccc(F)c(F)c3)CCn3cccc32)cc1 [Example 59] , report its IC50 (radioligand displacement).
< 1000 nM

Using the record for CC(C)(C)c1ccc(C2c3cccn3CCC2C(=O)Nc2ccc(F)c(F)c2)cc1 (mixture of isomers) [Example 95] , report its IC50 (radioligand displacement).
< 1000 nM

----------
target entity: Human CB2 (Homo sapiens, UniProt P34972)
Construct: expressed in transfected cells; membrane preparation
Sequence (P34972 whole entry): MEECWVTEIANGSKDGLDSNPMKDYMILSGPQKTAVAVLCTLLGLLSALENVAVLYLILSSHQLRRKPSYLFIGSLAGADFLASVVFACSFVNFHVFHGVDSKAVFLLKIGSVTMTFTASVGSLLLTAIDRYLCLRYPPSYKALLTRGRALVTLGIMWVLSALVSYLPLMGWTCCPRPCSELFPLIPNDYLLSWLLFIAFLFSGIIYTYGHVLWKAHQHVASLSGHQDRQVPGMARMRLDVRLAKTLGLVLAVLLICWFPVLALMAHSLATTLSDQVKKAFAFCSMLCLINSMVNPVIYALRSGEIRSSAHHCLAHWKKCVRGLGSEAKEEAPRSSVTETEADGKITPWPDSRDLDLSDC
experiment notes: Human CB2 Radioligand Binding Assay
condition details: membranes from stably transfected CHO CB2 cells; competition with [3H] CP-55,940; read-out: CB2 Ligand Binding Asssay
Would you kindly list IC50 (radioligand displacement) for each of these compounds?

Using the record for CC(C)(C)c1ccc(C2[C@@H]3CCCN3CCCN2C(=O)Nc2ccc(F)cc2F)cc1 (stereo partly drawn) , report its IC50 (radioligand displacement).
< 1000 nM

Using the record for O=C(Nc1ccc(F)cc1F)N1CCCn2cccc2C1Cc1ccccc1 (stereo not drawn) , report its IC50 (radioligand displacement).
> 1000 nM

Using the record for CC(C)(C)c1ccc(CC2[C@@H]3CCCN3CCCN2C(=O)Nc2ccc(F)cc2)cc1 (mixture of isomers) , report its IC50 (radioligand displacement).
> 1000 nM

----------
target entity: Human CB2 (Homo sapiens)
Construct: expressed in transfected cells; membrane preparation
experiment notes: Human CB2 Radioligand Binding Assay
condition details: membranes from stably transfected CHO CB2 cells; competition with [3H] CP-55,940; read-out: CB2 Ligand Binding Asssay
Would you kindly list IC50 (radioligand displacement) for each of these compounds?

Using the record for Cc1ccc(C2c3cccn3CCCN2C(=O)Nc2ccc(F)cc2F)cc1 (centres unmarked) , report its IC50 (radioligand displacement).
< 1000 nM

Using the record for CC(C)(C)c1ccc(C2c3cccnc3OCCN2C(=O)Nc2ccc(F)cc2F)cc1 (centres unmarked) , report its IC50 (radioligand displacement).
> 1000 nM

Using the record for CC(C)(C)c1ccc(C2=C(C(=O)Nc3ccc(F)c(F)c3)CCCn3cccc32)cc1 , report its IC50 (radioligand displacement).
< 1000 nM

Using the record for CC(C)(C)c1ccc(C2c3cccn3CCCC2NC(=O)Nc2ccc(Cl)c(Cl)c2)cc1 (single isomer, unassigned) [Example 120] , report its IC50 (radioligand displacement).
> 1000 nM

Using the record for O=C(Nc1ccc(F)c(F)c1)[C@H]1CCCn2cccc2[C@@H]1c1ccccc1 (relative stereo) , report its IC50 (radioligand displacement).
> 1000 nM

Using the record for CC(C)(C)c1ccc(C2=C(C(=O)Nc3ccc(Cl)cc3)CCCn3cncc32)cc1 , report its IC50 (radioligand displacement).
> 1000 nM

Using the record for CC(C)(C)c1ccc(C2c3cccn3CCCC2NC(=O)Nc2ccc(F)c(F)c2)cc1 (mixture of isomers) , report its IC50 (radioligand displacement).
< 1000 nM

Using the record for Cc1ccc(C2c3cccn3CCCN2C(=O)Nc2ccc(Cl)cc2Cl)cc1 (centres unmarked) , report its IC50 (radioligand displacement).
< 1000 nM
